Target: Bcl-2 protein (Recombinant Human Bcl-2 Protein) (Homo sapiens, UniProt P10415)
Construct: purchased Novus NBP2-34889
Sequence (P10415 whole entry): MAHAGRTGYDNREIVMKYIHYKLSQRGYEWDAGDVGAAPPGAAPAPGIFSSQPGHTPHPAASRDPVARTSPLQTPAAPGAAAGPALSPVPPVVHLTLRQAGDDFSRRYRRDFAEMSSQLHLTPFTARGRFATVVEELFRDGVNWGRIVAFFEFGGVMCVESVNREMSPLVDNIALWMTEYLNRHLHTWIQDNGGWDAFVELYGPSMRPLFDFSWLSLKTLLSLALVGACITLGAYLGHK
Assay: Binding evaluation of mixture library compounds to Bcl-2 using AS-MS (affinity selection mass spectrometry)
Conditions: AS-MS on the mixture of 1200 library compounds; ASMS Ratio(%)=(A−C)/B×100; replicate n = 1
Metric Name: ASMS ratio (%) n = 1
A bare number is not enough; add the unit after it.

Molecule | Experimental Target | ASMS ratio (%) n = 1
CCOc1cccc(-c2ccc(CN3CCN(c4ccc(C(=O)Nc5ccc(OC)cc5)cc4)CC3)c(OC)c2)c1 | Bcl-2 protein (Recombinant Human Bcl-2 Protein) (Homo sapiens, UniProt P10415) | 2.2%

Q: Value wanted: ASMS ratio (%) n = 1 (Bcl-2 protein (Recombinant Human Bcl-2 Protein) (Homo sapiens, UniProt P10415)) of entry CCOc1cncc(-c2ccc(C(C)N3CCN(c4ccc(C(=O)N(C)CC56CC7CC(CC(C7)C5)C6)cc4)CC3)cc2)c1 (centres unmarked)
Result: 0.6%

Q: Under Bcl-2 protein (Recombinant Human Bcl-2 Protein) (Homo sapiens, UniProt P10415): ASMS ratio (%) n = 1 value of `CCOc1cncc(-c2ccc(CN3CCN(c4ccc(C(=O)N(C)CC56CC7CC(CC(C7)C5)C6)cc4)CC3)c3ccccc23)c1` ?
Result: 6.3%

Q: Write down the reported ASMS ratio (%) n = 1 of `CCOc1cncc(-c2cc(CN3CCN(c4ccc(C(=O)Nc5ccc(OC)cc5)cc4)CC3)cc(OC(C)C)c2)c1` , test system: Bcl-2 protein (Recombinant Human Bcl-2 Protein) (Homo sapiens, UniProt P10415).
Result: −3.5%

Q: Request - read-out ASMS ratio (%) n = 1 | tested on Bcl-2 protein (Recombinant Human Bcl-2 Protein) (Homo sapiens, UniProt P10415) | molecule `CCOc1cncc(C#Cc2cc(C(=O)N3CCN(c4ccc(C(=O)Nc5ccc(OC)cc5)cc4)CC3)cc(C(F)(F)F)c2)c1`
Result: 2.8%
